# system-under-test: Neuropeptide Y receptor type 5 (Homo sapiens) (UniProt Q15761)
# Sequence (Q15761 whole entry): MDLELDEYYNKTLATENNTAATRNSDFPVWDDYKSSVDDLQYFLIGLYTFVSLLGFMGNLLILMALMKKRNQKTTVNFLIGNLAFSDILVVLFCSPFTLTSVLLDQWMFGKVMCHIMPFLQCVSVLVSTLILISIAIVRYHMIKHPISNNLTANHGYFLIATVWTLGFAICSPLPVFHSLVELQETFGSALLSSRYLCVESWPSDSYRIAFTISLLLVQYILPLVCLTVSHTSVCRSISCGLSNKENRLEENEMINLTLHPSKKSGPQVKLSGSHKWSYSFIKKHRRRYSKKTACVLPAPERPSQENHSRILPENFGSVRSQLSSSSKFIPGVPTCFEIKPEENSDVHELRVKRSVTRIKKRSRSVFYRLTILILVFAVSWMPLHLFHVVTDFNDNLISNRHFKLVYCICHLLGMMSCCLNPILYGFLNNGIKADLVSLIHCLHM
# experiment-description: Tested for the inhibition of [125I]PYY binding to HEK 293 cells stably expressed with human neuropeptide NPY Y5 receptor at a concentration of 10e-8 M
# Assay type: cell-based
# test-settings: HEK293
property-label: inhibition (%)

| molecule | system-under-test | display-unit | inhibition |
| --- | --- | --- | --- |
| Cc1ccc2nc(NC(=O)C3CCN(C(=O)Cn4c(=O)sc5ccc(Cl)cc54)CC3)sc2c1 | Neuropeptide Y receptor type 5 (Homo sapiens) (UniProt Q15761) | % | 68.1 |

[I] Cc1cccc(O)c1NC(=O)C1CCN(C(=O)Cn2c(=O)sc3ccc(Cl)cc32)CC1
[II] O=C(Nc1cccc2ccccc12)C1CCN(C(=O)Cn2c(=O)sc3ccc(Cl)cc32)CC1
Name the one with the greater inhibition value, either I or II as given. Please respond with the label that marks your chosen entry.
II

[P] CC(=O)c1cccc(NC(=O)C2CCN(C(=O)Cn3c(=O)sc4ccc(Cl)cc43)CC2)c1
[Q] Cc1cc(O)ccc1NC(=O)C1CCN(C(=O)Cn2c(=O)sc3ccc(Cl)cc32)CC1
// pick min by inhibition: P , Q Please respond with the label that marks your chosen entry.
Q

[A] O=C(Cn1c(=O)sc2ccc(Cl)cc21)N1CCC(C(=O)N2CCCc3ccccc32)CC1
[B] CCCCCCCCCCNC(=O)C1CCN(C(=O)Cn2c(=O)sc3ccc(Cl)cc32)CC1
Name the one with the greater inhibition value, either A or B as given. Please respond with the label that marks your chosen entry.
B
(B: 89.6%, A: -3.5%)

[I] O=C(Nc1nc2cc(Cl)ccc2o1)C1CCN(C(=O)Cn2c(=O)sc3ccc(Cl)cc32)CC1
[II] O=C(Cn1c(=O)sc2ccc(Cl)cc21)N1CCC(C(=O)N2CCc3ccccc32)CC1
// pick min by inhibition: I , II Please respond with the label that marks your chosen entry.
II
(II: 43.1%, I: 68.4%)

[P] O=C(NCC(O)c1ccccc1)C1CCN(C(=O)Cn2c(=O)sc3ccc(Cl)cc32)CC1 (configuration not stated)
[Q] NS(=O)(=O)c1ccc(CCNC(=O)C2CCN(C(=O)Cn3c(=O)sc4ccc(Cl)cc43)CC2)cc1
Name the one with the greater inhibition value, either P or Q as given. Please respond with the label that marks your chosen entry.
P
(P: 79.4%, Q: 44.7%)
